// reported pIC50 per item
- target: Macrophage metalloelastase (Homo sapiens)
- Sequence (P39900 whole entry): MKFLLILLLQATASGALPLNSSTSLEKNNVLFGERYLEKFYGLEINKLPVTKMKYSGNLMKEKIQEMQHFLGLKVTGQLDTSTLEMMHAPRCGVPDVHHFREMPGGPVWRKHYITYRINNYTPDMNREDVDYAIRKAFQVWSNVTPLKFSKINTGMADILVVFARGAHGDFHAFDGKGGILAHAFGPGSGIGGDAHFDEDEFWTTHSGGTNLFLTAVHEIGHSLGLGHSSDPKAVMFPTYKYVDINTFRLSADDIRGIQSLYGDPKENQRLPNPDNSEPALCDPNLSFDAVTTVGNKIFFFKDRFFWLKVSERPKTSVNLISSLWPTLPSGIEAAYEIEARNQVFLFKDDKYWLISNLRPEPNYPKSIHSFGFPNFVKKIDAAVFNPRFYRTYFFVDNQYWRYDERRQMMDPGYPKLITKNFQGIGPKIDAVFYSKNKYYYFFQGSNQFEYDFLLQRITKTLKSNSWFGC
The read-out pIC50 is expressed as -log10 of concentration in moles per litre.

Solved cases (3 shown):
>  <compound>
CCCC[C@H](CC(=O)NO)S(=O)(=O)c1ccccc1

>  <target>
Macrophage metalloelastase (Homo sapiens)

>  <pIC50>
7.38

$$$$
>  <compound>
CCCCC(CC(=O)NO)S(=O)(=O)c1ccc2ccccc2c1 (centres undefined)

>  <target>
Macrophage metalloelastase (Homo sapiens)

>  <pIC50>
7.89

$$$$
>  <compound>
CCCCC(CC(=O)NO)S(=O)(=O)C1CCCCC1 (centres undefined)

>  <target>
Macrophage metalloelastase (Homo sapiens)

>  <pIC50>
7.85

$$$$

Query: For the compound CCCCC(CC(=O)NO)S(=O)(=O)c1ccccc1 (centres undefined) , what pIC50 is on record?
Reply: 7.92
